Items are presented alongside their recorded pIC50.
- measuredTarget: AnCE (Drosophila melanogaster, UniProt Q10714)
- Construct: recombinant single-domain enzyme, secreted from Pichia pastoris, purified
- Sequence (Q10714 18-615): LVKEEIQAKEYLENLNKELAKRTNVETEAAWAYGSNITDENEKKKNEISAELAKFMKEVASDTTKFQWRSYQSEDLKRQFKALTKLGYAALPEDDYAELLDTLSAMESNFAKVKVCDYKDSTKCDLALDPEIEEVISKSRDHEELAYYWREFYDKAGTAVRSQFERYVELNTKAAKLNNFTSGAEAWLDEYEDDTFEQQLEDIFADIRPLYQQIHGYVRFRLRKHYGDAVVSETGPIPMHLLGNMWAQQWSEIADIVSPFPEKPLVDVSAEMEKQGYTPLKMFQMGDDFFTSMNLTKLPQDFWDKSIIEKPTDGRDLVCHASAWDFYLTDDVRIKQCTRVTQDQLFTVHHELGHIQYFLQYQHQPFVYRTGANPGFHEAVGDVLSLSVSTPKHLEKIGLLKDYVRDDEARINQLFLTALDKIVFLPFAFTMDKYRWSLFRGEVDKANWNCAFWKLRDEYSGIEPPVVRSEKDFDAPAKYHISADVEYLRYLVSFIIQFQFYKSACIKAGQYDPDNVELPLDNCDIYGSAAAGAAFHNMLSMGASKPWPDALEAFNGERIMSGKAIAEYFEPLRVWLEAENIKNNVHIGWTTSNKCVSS
- protocol: inhibition of hippuryl-histidyl-leucine hydrolysis
# pIC50: negative log10 of molar concentration; output just the value

[
  {
    "compoundStructureString": "O=C(N[C@@H](Cc1ccccc1)P(=O)(O)C[C@@H](Cc1cc(-c2ccccc2)no1)C(=O)N[C@@H](Cc1ccc(O)cc1)C(=O)O)OCc1ccccc1",
    "pIC50": 7.36
  }
]

**Q:** Give the measured pIC50 of "O=C(N[C@@H](Cc1ccccc1)P(=O)(O)C[C@H](Cc1cc(-c2ccccc2)no1)C(=O)N[C@@H](Cc1ccc(O)cc1)C(=O)O)OCc1ccccc1" .
**A:** 6.68
